- Measurement Notes: stimulators of nuclear beta-catenin in C2C12, primary screen, imaging, WNT3A-conditioned medium, mouse C2C12, NPC library (AID 1117326)
- Measurement Parameters: at 10 µM, hits give high values
Quick list: nuclear beta-catenin stimulation per entry.
API: value field is a number in %; no unit string.

Would you please look over these solved cases?
{"Compound": "CN(C)CCCOC1(Cc2ccccc2)CCCCCC1", "Parameter": "nuclear beta-catenin stimulation", "Quantitative Result": 6}
{"Compound": "Cc1c(I)c(=O)n(-c2ccccc2)n1C", "Parameter": "nuclear beta-catenin stimulation", "Quantitative Result": -0.6}
{"Compound": "CCCCCCCCCCCCCCCCCC(=O)O", "Parameter": "nuclear beta-catenin stimulation", "Quantitative Result": 0.8}
{"Compound": "CC(C)(C)c1ccc(C(=O)CCCCl)cc1", "Parameter": "nuclear beta-catenin stimulation", "Quantitative Result": -0.1}

Prompt: Name the reported nuclear beta-catenin stimulation value associated with the compound `NNCCc1ccccc1`
Completion: 1.9

###

- Tested on: F380Y/beta2Delta
- Measurement Notes: modulators of BK channel variants, profiling panel, selectivity assay, cell-based, U2OS BacMam, thallium flux, beta subunits (AID 1259406);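 also: initial slope of Thallos dye fluorescence rise after thallium is added; log ratio against the mean of 0.3% DMSO vehicle wells on the same plate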
- Measurement Parameters: at 30 µM
Parameter: log fold change Tl+ flux
Answer with a bare number; do not write a unit.

Consider the worked cases shown below.
{"Compound": "CC[C@H](C)C(=O)O[C@H]1C[C@H](O)C=C2C=C[C@H](C)[C@H](CC[C@@H](O)C[C@@H](O)CC(=O)O)[C@H]21", "Target": "F380Y/beta2Delta", "log fold change Tl+ flux": -0.0757}
{"Compound": "NNCCc1ccccc1", "Target": "F380Y/beta2Delta", "log fold change Tl+ flux": -0.0213}
{"Compound": "CC(=O)CC(c1ccccc1)c1c(O)c2ccccc2oc1=O (centres undefined)", "Target": "F380Y/beta2Delta", "log fold change Tl+ flux": 0.0322}

Query compound follows.
Prompt: Please report the recorded log fold change Tl+ flux for `Cc1cccc(Nc2ccccc2C(=O)O)c1C` .
Completion: 0.111

###

- Tested on: F380Y/beta1
- Measurement Notes: modulators of BK channel variants, profiling panel, selectivity assay, cell-based, U2OS BacMam, thallium flux, beta subunits (AID 1259406);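 also: initial slope of Thallos dye fluorescence rise after thallium is added; log ratio against the mean of 0.3% DMSO vehicle wells on the same plate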
- Measurement Parameters: at 30 µM
Calls of active or inactive are those of the source.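 The calls were made as follows: active = thallium flux through the channel raised or lowered by more than 3 SD from vehicle-only wells, actives on both sides; inactive = the rest.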
# log fold change Tl+ flux per entry

Prompt: Consider the compound `COc1ccc2cc(CCC(C)=O)ccc2c1` and give its measured log fold change Tl+ flux.
Completion: -0.0534 (inactive)

###

Reported insulin secretion stimulation is given for each of the following compounds.
- Measurement Notes: stimulators of insulin release from INS-1E, primary screen, cell-based, 5 mM glucose, NPC library (AID 1117329)
- Measurement Parameters: rat INS-1E insulin secretion, at 10 µM, hits give high values
Provide only the numeric value, understood in %.

{"Compound": "CCCCCCCCCCCCCCCCCC(=O)[O][Al]", "insulin secretion stimulation, %": 0.8}

Prompt: Value lookup for insulin secretion stimulation; key = `COc1ccc(/C=C/C(=O)c2ccc(OC)cc2OC)cc1`
Completion: 2.6

Prompt: For the compound shown here, CCC(C(=O)OCCN(CC)CC)c1ccccc1 (stereo unspecified) , give the reported insulin secretion stimulation.
Completion: 1.3

Prompt: Need insulin secretion stimulation, item `Oc1ccc(/C=C/c2cc(O)cc(O)c2)cc1`
Completion: 0.1

Prompt: # input compound: `CCCCNC(=O)NS(=O)(=O)c1ccc(N)cc1` ; wanted: its insulin secretion stimulation
Completion: 0.4

Prompt: Consider the compound shown here: `O=C(O)c1c(O)c(-c2ccccc2)nc2ccccc12` What is its recorded insulin secretion stimulation?
Completion: 3

Prompt: Name the reported insulin secretion stimulation value associated with the compound `CC(C)(C)C(=O)NCCCC(=O)O`
Completion: 2.7

Prompt: May I ask what insulin secretion stimulation has been recorded for `O=C(O)Cc1cn(-c2ccccc2)nc1-c1ccc(Cl)cc1` ?
Completion: 0.6

Prompt: Find the recorded insulin secretion stimulation belonging to CCCCCCCCC=CCCCCCCCC(=O)NCCOC(=O)CC(C(=O)O)S(=O)(=O)O (stereo unspecified) and report it.
Completion: 0.8

Prompt: Which insulin secretion stimulation is listed for `CC[N+](CC)(CC)CCOC(=O)C(C1CCCC1)C1CCCC1` ?
Completion: 0.5

Prompt: Look at this compound and give its reported insulin secretion stimulation. `O=C(O)c1ccccn1`
Completion: -0.2

Prompt: Could you tell me which insulin secretion stimulation is on file for `O=C1CC2(CCCC2)CC(=O)N1` ?
Completion: 0.4

Attribution: PubChem BioAssay
